- target-desc: T1, recombinant human DLL4 (Cat# 1506-D4/CF, R&D Systems) (human, UniProt Q9NR61 27-529)
- T1 construct: Bought protein; also called hDLL4; rHuman DLL4
- assay-info: ELISA, DLL4 coated, Fab 33.33 nM
Quick list: ELISA absorbance at 450 nm per entry.
Only the number, expressed in A450, is required.

Some binders with known ELISA absorbance at 450 nm results, for comparison:
q: Query (binder): Fab VH5-51_IGHD5-18*01>3_IGHJ4*01 G100K/G104T G24T/S28R/G35V & V3-4_IGLJ1*01 (Fab, V domains shown, Fab made in E. coli: VH on CH1 with His6 and Flag tags (Plasmid A), VL on lambda CL (Plasmid E); also called H: KT TRV & L: wt) VH: EVQLVQSGAEVKKPGESLKISCKTSGYRFTSYWIVWVRQMPGKGLEWMGIIYPGDSDTRYSPSFQGQVTISADKSISTAYLQWSSLKASDTAMYYCARRKYSYTYDYFDYWGQGTLVTVSS VL: QTVVTQEPSFSVSPGGTVTLTCGLSSGSVSTSYYPSWYQQTPGQAPRTLIYSTNTRSSGVPDRFSGSILGNKAALTITGAQADDESDYYCVLYMGSGISYVFGTGTKVTVL ; field requested: ELISA absorbance at 450 nm
a: 0.08

q: Query (binder): Fab VH5-51_IGHD5-18*01>3_IGHJ4*01 G100K/G104T G24T/S28R/G35V & V3-4_IGLJ1*01 V91L/S96P S52M (Fab, V domains shown, Fab made in E. coli: VH on CH1 with His6 and Flag tags (Plasmid A), VL on lambda CL (Plasmid E); also called H: KT TRV & L: LP S52M) VH: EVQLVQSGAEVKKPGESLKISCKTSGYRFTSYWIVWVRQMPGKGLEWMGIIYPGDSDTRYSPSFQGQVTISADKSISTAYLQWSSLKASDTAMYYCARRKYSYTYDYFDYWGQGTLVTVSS VL: QTVVTQEPSFSVSPGGTVTLTCGLSSGSVSTSYYPSWYQQTPGQAPRTLIYMTNTRSSGVPDRFSGSILGNKAALTITGAQADDESDYYCLLYMGPGISYVFGTGTKVTVL ; field requested: ELISA absorbance at 450 nm
a: 0.12

q: Query (binder): Fab VH5-51_IGHD5-18*01>3_IGHJ4*01 G100K/G104T G24T/S28R/G35V & V3-4_IGLJ1*01 V91L/S96P S52G (Fab, V domains shown, Fab made in E. coli: VH on CH1 with His6 and Flag tags (Plasmid A), VL on lambda CL (Plasmid E); also called H: KT TRV & L: LP S52G) VH: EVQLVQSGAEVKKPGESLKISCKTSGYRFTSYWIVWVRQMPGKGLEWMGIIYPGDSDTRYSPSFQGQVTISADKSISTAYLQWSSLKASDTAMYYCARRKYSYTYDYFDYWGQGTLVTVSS VL: QTVVTQEPSFSVSPGGTVTLTCGLSSGSVSTSYYPSWYQQTPGQAPRTLIYGTNTRSSGVPDRFSGSILGNKAALTITGAQADDESDYYCLLYMGPGISYVFGTGTKVTVL ; field requested: ELISA absorbance at 450 nm
a: 0.35

Continuing:
q: Query (binder): Fab VH5-51_IGHD5-18*01>3_IGHJ4*01 G100K/G104T G24T/S28R/G35V & V3-4_IGLJ1*01 V91L/S96P (Fab, V domains shown, Fab made in E. coli: VH on CH1 with His6 and Flag tags (Plasmid A), VL on lambda CL (Plasmid E); also called H: KT TRV & L: LP) VH: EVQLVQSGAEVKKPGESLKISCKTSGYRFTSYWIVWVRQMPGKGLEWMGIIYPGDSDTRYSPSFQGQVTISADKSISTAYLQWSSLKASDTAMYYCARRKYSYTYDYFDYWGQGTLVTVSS VL: QTVVTQEPSFSVSPGGTVTLTCGLSSGSVSTSYYPSWYQQTPGQAPRTLIYSTNTRSSGVPDRFSGSILGNKAALTITGAQADDESDYYCLLYMGPGISYVFGTGTKVTVL ; field requested: ELISA absorbance at 450 nm
a: 0.19
